Ref: paper PMC5844530

Assay: Microdialysis (brain striatal dialysate) in C57Bl6 mice
Conditions: male, C57Bl6, mouse, striatal dialysate (brain microdialysate), other: direct infusion into the striatum via cannula, 125 µg per animal
metric.name: concentration at 0 h
Record the result as a number with its unit.

Data request: Specify concentration at 0 h for COC(=O)CCNC(=O)[C@H](O)C(C)(C)COP(=O)(N[C@@H](C)C(=O)OC)Oc1ccccc1 (mixture of isomers) [Fosmetpantotenate] and stop.
Data returned: 239 nM

====

Assay: Pharmacokinetics in whole blood, CD-1 mice
Conditions: male, CD-1, mouse, whole blood, po, 100 mg/kg, Whole Blood Conc. of compound 3, CD-1 mice, single 100 mg/kg RE-024-02 PO, 8 hr, LLOQ 21.3 nM
metric.name: concentration at 8 h (nM)
One number for each entry, in nM.

Data request: Write down concentration at 8 h measured for item CC1(C)COP(=O)(O)O[C@H]1C(=O)NCCC(=O)O [Compound 3]
Data returned: 21.6
